# protocol: NCI Yeast Anticancer Drug Screen. Data for the rad50 strain (AID 155);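 also: 0% = growth of vehicle-only cultures of the same strain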
# experimental-parameters: S. cerevisiae rad50 strain growth inhibition; at 50.0 µM; hits give high values
This is part of a sample that, as a whole, favours compounds with a hit. Of some 79,000 tested, about 15% had one in any assay.
growth inhibition reference
Quick reminder: number only, in %, skip the unit.

Worked set:
• CC(=O)Oc1ccc(C2OC(=O)c3ccccc3N2C(C)=O)cc1 (configuration not stated) = 4.05
• FC(F)(F)c1ccc(C2SCc3nc4ccccc4n32)cc1 (configuration not stated) = -43

Inquiry: Please report the measured growth inhibition for CCOC(=O)C(Cl)(NC(=O)c1ccc(F)cc1)C(F)(F)F (configuration not stated)
Reply text: -6.25

Inquiry: Please report the measured growth inhibition for CCOC(=O)C(C)(C(=O)OCC)n1cnc2c1c(=O)n(C)c(=O)n2C
Reply text: 8.05

Inquiry: Please report the measured growth inhibition for CSC(=O)/C=C1\SS/C(=C\C(=O)SC)S1
Reply text: -10

Inquiry: Please report the measured growth inhibition for Cc1nc2c(c(-c3ccc(Cl)cc3)n1)Cc1c(ccc3ccccc13)O2
Reply text: -15.4

Inquiry: Please report the measured growth inhibition for O=C(NC(Cc1ccccc1)C(=O)NC(Cc1c[nH]c2ccccc12)C(=O)O)OCc1ccccc1 (configuration not stated)
Reply text: 1.9

Provenance of the data: PubChem BioAssay (NCI)
